target.or.system: human TYK2 catalytic kinase (JH1) domain (Homo sapiens (Human), UniProt P29597)
Sequence (P29597 897-1176): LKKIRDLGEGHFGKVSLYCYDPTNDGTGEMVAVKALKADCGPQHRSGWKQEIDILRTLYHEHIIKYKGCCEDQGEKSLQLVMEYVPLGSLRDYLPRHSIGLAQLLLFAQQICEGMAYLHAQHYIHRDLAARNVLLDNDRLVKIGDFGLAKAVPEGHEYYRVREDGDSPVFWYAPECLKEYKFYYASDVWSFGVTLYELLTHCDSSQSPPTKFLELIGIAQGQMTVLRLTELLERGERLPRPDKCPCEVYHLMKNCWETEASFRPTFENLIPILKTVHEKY
assay.procedure: ADP-Glo Kinase Assay, recombinant TYK2 catalytic kinase (JH1) domain
Type: biochemical
particulars: recombinant JH1 domain 2 nM, 10 μM ATP, JAK3-974 peptide, mean, read-out: TYK2 biochem IC50 (nM) Mean
assay.endpoint: IC50 (nM)
Just the number please, in nM, no unit attached.

These recorded examples may help you get a feel for the data.
{"smiles.notation": "COc1nccc(-c2cc3c(N4CC5CCC(C4)N5C(=O)[C@@H]4C[C@H]4F)ccnn3c2)c1F", "IC50 (nM)": 9.8}
{"smiles.notation": "COc1cc(-c2cc3c(N4CC5CCC(C4)N5S(=O)(=O)C4CC4)ccnn3c2)ccn1", "IC50 (nM)": 64.4}
{"smiles.notation": "Cn1cc(-c2cc3c(N4CC5CCC(C4)N5C(=O)C4(F)CC4)ncnn3c2)cn1", "IC50 (nM)": 289}

### Prompt Fill blank: measured IC50 of the compound "Cn1ccc(-c2cc3c(N4CC5CCC(C4)N5C(=O)[C@@H]4C[C@H]4F)ccnn3c2)cc1=O" is ____.
### Response 1.5
